Target: T1, human amylin receptor (AMY3) on CHO-K1/Ga15/AMY3 cells (human, UniProt P30988 25-474; O60896 24-148)
T1 sequence (looked up) 1: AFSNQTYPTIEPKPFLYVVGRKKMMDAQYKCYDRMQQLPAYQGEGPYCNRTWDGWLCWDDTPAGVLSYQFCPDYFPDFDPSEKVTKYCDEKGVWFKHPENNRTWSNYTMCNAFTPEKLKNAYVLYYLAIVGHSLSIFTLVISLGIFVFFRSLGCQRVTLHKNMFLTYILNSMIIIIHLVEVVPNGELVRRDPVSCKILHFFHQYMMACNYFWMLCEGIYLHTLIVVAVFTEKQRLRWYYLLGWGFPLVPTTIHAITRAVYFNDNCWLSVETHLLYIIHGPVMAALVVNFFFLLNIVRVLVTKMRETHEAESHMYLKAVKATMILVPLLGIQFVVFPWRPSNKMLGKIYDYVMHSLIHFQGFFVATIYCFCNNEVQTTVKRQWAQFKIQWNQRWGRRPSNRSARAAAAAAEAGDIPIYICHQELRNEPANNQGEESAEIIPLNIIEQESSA
T1 sequence (looked up) 2: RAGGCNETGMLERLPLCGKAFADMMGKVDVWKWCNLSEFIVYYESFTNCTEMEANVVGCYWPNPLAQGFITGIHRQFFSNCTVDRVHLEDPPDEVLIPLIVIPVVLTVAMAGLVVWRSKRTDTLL
Experiment: cell-based or functional assay
*1 amine or outer side, *2 acyl side, *3 side chain or, on linkers, in order; H or OH if unused. Bridges are numbered along the chain shown (N, C = ends). Where no end group is shown, it is not given here. Side-chain parts run from the residue outwards. [ ]: non-standard residue; d: D form. The star is where a group is joined. C20 diacid = O=C(O)CCCCCCCCCCCCCCCCCCC(=O)*; γGlu = O=C(O)[C@H](CCC(=O)[*:2])N[*:1]; Orn = NCCC[C@H](N)C(=O)O

binder	EC50, CRE-luciferase assay (nM)
CNTATCATQRLAEFLRHSSNNLK([γGlu-C20 diacid])PILPPTNVGSNTP-NH2 (disulfide 1-6 (inferred)) [PD049]	0.215
RCNTATCATQRLADFLRHSSNNLK([γGlu-C20 diacid])PILPPTNVGSNTP-NH2 (disulfide 2-7 (inferred)) [PD048]	0.047
RCNTATCATQRLAEFL[Orn]HSSNNLK([γGlu-C20 diacid])PILPPTNVGSNTP-NH2 (disulfide 2-7 (inferred)) [PD046]	1.68
